# EC50 per record follows
# tgt: [Pyruvate dehydrogenase (acetyl-transferring)] kinase isozyme 1, mitochondrial (Homo sapiens, UniProt Q15118)
# Sequence (Q15118 whole entry): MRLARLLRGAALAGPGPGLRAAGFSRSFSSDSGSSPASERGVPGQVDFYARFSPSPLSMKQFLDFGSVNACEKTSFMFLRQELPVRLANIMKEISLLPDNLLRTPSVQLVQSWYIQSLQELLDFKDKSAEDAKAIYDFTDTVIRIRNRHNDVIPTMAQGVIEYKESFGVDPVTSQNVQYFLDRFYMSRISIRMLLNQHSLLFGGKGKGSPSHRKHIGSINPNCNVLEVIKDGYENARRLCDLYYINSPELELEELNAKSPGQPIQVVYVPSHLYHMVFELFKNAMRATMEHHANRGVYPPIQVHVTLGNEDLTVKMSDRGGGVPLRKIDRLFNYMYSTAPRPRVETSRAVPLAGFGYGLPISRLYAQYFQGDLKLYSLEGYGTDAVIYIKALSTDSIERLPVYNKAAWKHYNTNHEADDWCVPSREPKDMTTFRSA
# test details: Inhibition of PDK1 (unknown origin) using PDH E1 as substrate measured after 30 mins by kinase-glo assay
Please reply with the bare figure in nM and do not write the unit itself.

These solved cases illustrate the format of a correct answer.
{"compound structure": "CN(Cc1cnc2ccccn12)C(=O)c1cc(COc2ccc3c(c2)OCO3)[nH]n1", "recorded number": 500}
{"compound structure": "OCCn1nc(C2CCOCC2)nc1[C@@H]1CCCCN1Cc1ccccc1", "recorded number": 420}
{"compound structure": "CCCCN(Cc1ccncc1)C(=O)c1cc(-c2ccccc2O)n[nH]1", "recorded number": 1990}

stdin: Please report the recorded EC50 for CC(C)=CCN1CCN(Cc2c(C)n(C)n(-c3ccccc3)c2=O)C[C@@H]1CCO .
stdout: 4640

Hey, just so you know, these numbers are from ChEMBL document CHEMBL4308888.
